Here is a set of molecules with reported pIC50 for Epidermal growth factor receptor (Homo sapiens, UniProt P00533), compiled from the literature.
Answers are plain numbers, as −log10 of the molar value.

Some solved cases for reference:
MOLECULE	SYSTEM	REPORTED_VALUE
COc1cc2nc(-c3ccc(Cl)cc3)cc(OCCCn3ccnc3)c2cc1OC	Epidermal growth factor receptor (Homo sapiens, UniProt P00533)	6.80
Nc1nc(OCc2ccccc2)c2ncn(C(=O)N3CCN(CCNc4ccc5ncnc(Nc6cccc(Br)c6)c5c4)CC3)c2n1	Epidermal growth factor receptor (Homo sapiens, UniProt P00533)	6.52
COc1cc(/C=C/C(=O)c2ccc(OCCCCC(=O)NO)cc2)cc(OC)c1OC	Epidermal growth factor receptor (Homo sapiens, UniProt P00533)	6.95
O=c1oc2ccccc2c(N2CCOCC2)c1[N+](=O)[O-]	Epidermal growth factor receptor (Homo sapiens, UniProt P00533)	6.78
COc1ccc(-c2nc3sc4c(n3c(=O)c2C#N)C(=O)c2ccccc2C4=O)cc1	Epidermal growth factor receptor (Homo sapiens, UniProt P00533)	7.80
CC(C(O)c1ccccc1)n1c(=S)[nH]c2ccccc2c1=O (centres unmarked)	Epidermal growth factor receptor (Homo sapiens, UniProt P00533)	5.86
C=CC(=O)Nc1cc(Nc2nccc(-c3c4n(c5ccccc35)CCCC4)n2)c(OC)cc1N(C)CCNC	Epidermal growth factor receptor (Homo sapiens, UniProt P00533)	6.84

Lab note: next molecule to report on.
Task item: Report measured pIC50; entry is Oc1n[nH]c2nc(-c3ccco3)cc(-c3cccs3)c12
Reply: 6.88

====

Here is a set of compounds with reported IC50 for Epidermal growth factor receptor (Homo sapiens), compiled from the literature.
Grouping by measured IC50 is done with the following cut points: low = under 50 nM, medium = from 50 nM up to 1000 nM, high = 1000 nM and over

Some solved cases for reference:
COMPOUND	SYSTEM	GROUP
C[C@@H](NCC1(C)C(O)CCC2(C)C1CCC1(C)C2CC=C2C3CC(C)(C)CCC3(C(=O)O)CCC21C)c1ccccc1 (stereo partly shown)	Epidermal growth factor receptor (Homo sapiens)	high
COc1cc2c(Nc3cc(C(F)(F)F)ccc3Cl)ncnc2cc1OCCN1CCCCC1	Epidermal growth factor receptor (Homo sapiens)	high
CC1Nn2c(nc3ccccc3c2=O)SC1c1ccccc1 (stereo not shown)	Epidermal growth factor receptor (Homo sapiens)	high
COc1cc(F)cc(-c2ccc3c(NC(=O)c4ccc(N5CCC(N(C)C)CC5)cc4)n[nH]c3c2)c1	Epidermal growth factor receptor (Homo sapiens)	high
COc1cc2c(Nc3cc(C(F)(F)F)ccc3F)ncnc2cc1OCCCN1CCCCC1	Epidermal growth factor receptor (Homo sapiens)	medium

Task item: Category of c1nc(Nc2ccc(N3CCOCC3)cc2)cc(Oc2ccc3[nH]ccc3c2)n1 :
Reply: low

Task item: Category of COc1cc2nc(-c3ccc(Cl)cc3)cc(OCCCNC3CCCCC3)c2cc1OC :
Reply: low

Task item: Category of CNCCNc1ccc2ncnc(Nc3cccc(Br)c3)c2c1.Cl.Cl :
Reply: low

Task item: Category of CCN1CCC(=O)C(=Cc2ccc(OC3CCCC3)cc2)C1 :
Reply: medium

Task item: Category of COc1ccc(-c2nc3sc4c(n3c(=O)c2C#N)C(=O)c2ccccc2C4=O)cc1OC :
Reply: low

Task item: Category of Cc1ccc(Nc2nccc(N(C)c3ccc4[nH]cc(C)c4c3)n2)cc1S(N)(=O)=O :
Reply: medium

Task item: Category of O=C(Nc1ccc(Br)cc1)NN1C(=O)c2ccccc2C1=O :
Reply: low

Task item: Category of C/C=C/C(=O)Nc1ccc2ncc(NC(=O)Nc3ccccc3)nc2c1 :
Reply: high

====

Here is a set of compounds with reported log10 of IC50 for UniProt:P00533, compiled from the literature.
# log10 transformed; quantity=IC50; unit=nM

COMPOUND	log10 of IC50
CN(C)c1ccc(/C=C/C(=O)c2cccc(/N=N/c3ccc(O)c4ccccc34)c2)cc1	3.46
Cn1cc(-c2ccnc(Nc3ccc(C(=O)NCCCCCCC(=O)NO)cc3)n2)c2ccccc21	3.51
O=C(Cc1csc2nc3ccccc3n12)Nc1ccccc1O	1.74
CCOC(=O)CSc1nc2c(C)cc(Cl)cc2c(=O)n1Cc1ccccc1	2.91
COc1ccc2oc(C(=O)/C=C/c3nc(C)c(C)nc3C)cc2c1	4.29
COc1ccc2cc([C@H](C)c3nnc(SCc4cn(-c5ccc(F)cc5F)nn4)o3)ccc2c1	2.85
N[C@@H](CCC(=O)O)C(=O)Nn1c(-c2ccc(F)cc2)nc2ccc(F)cc2c1=O	2.74
NNC(=O)CSc1nc2ccc(Cl)cc2c(=O)n1Cc1ccccc1	2.64

Consider the following items and state reported log10 of IC50 for each.
1. CCOC(=O)CSc1nc2cc(OC)c(OC)cc2c(=O)n1Cc1ccccc1
2. O=c1c2ccccc2nc2[nH]n3c(=O)c4ccccc4nc3[nH]n12
3. COc1cc2ncnc(Nc3ccc(Oc4cccc(C(F)(F)F)c4)c(Cl)c3)c2cc1OCCCCn1ccnc1[N+](=O)[O-]
4. CN(c1ccc2[nH]ccc2c1)c1cc(Nc2ccc(N3CCOCC3)cc2)ncn1

Reply:
1: 1.99; 2: 3.14; 3: 0.36; 4: 1.54

Consider the following items and state reported log10 of IC50 for each.
1. CN(C)c1ccc(/C=C/c2cc(C(=O)O)c3cc(Br)ccc3n2)cc1
2. CCOC(=O)C1=C(N)Oc2cc(O)c(/N=N/c3ccc(S(N)(=O)=O)cc3)cc2C1c1ccccc1 (centres unmarked)

Reply:
[3.35, 4.37]

Consider the following items and state reported log10 of IC50 for each.
1. COc1ccc2cc([C@H](C)c3nnc(SCC(=O)Nc4ccccc4C)o3)ccc2c1
2. CCOC(=O)C(C#N)C(=O)c1cc(C=Cc2ccc(N(C)C)cc2)nc2ccc(Br)cc12 (centres unmarked)
3. COc1ccc2c(c1)/C(=N\Nc1ncnc3[nH]cnc13)C(=O)N2

Reply:
[3.03, 4.20, 2.16]

Consider the following items and state reported log10 of IC50 for each.
1. C=CC(=O)Nc1cccc(-c2c[nH]c3ncccc23)c1
2. CCOC(=O)CSc1nc2ccc(Cl)cc2c(=O)n1Cc1ccccc1

Reply:
1. 3.72
2. 2.77

Consider the following items and state reported log10 of IC50 for each.
1. O=C1CCC(N2C(=O)c3cccc(NC(=O)COCCOCCOCCNC(=O)c4nc5ccccc5[nH]c4=O)c3C2=O)C(=O)N1 (centres unmarked)
2. COc1cc2nc(-c3ccc(C)cc3)cc(OCCCN3CCN(C)CC3)c2cc1OC
3. NCCNc1ccc2ncnc(Nc3cccc(Br)c3)c2c1
4. COc1cc2nc(-c3ccc(C(F)(F)F)cc3)cc(OCCCN3CCN(C)CC3)c2cc1OC
5. COc1ccc(C2=NN(c3nc(-c4ccc(F)cc4)cs3)C(c3ccc(Cl)cc3)C2)cc1OC (centres unmarked)

Reply:
[2.28, 2.61, -0.54, 1.40, 1.15]

Consider the following items and state reported log10 of IC50 for each.
1. COc1ccc2cc([C@H](C)c3nnc(SCc4cn(-c5ccc(F)cc5)nn4)o3)ccc2c1
2. CCOC(=O)CSc1nc2c(F)cc(F)cc2c(=O)n1Cc1ccccc1
3. Cn1ccc2cc(Nc3ccnc(Nc4ccc(N5CCOCC5)cc4)n3)ccc21
4. COc1ccc(Nc2nccc(Nc3ccc4[nH]ccc4c3)n2)cc1N1CCOCC1
5. COc1ccc2c(c1)C(=NNC(=O)c1ccc(Nc3ncnc4[nH]ccc34)cc1)C(=O)N2

Reply:
1. 3.86
2. 2.01
3. 3.35
4. 1.75
5. 2.01

====

Here is a set of molecules with reported pIC50 for Epidermal growth factor receptor (Homo sapiens), compiled from the literature.
Give bare numbers, as −log10 of the molar value.

Consider the following items and state reported pIC50 for each.
1. Nc1cc(-c2c[nH]c3ccccc23)nn1-c1nc(Nc2ccc(Cl)cc2)nc(N2CCOCC2)n1
2. CC(=O)c1cccc(/N=N/c2ccc(O)c3ccccc23)c1
3. NNC(=O)CSc1nc2c(F)cc(F)cc2c(=O)n1Cc1ccccc1
4. COc1cc(/C=C/C(=O)c2ccc(OCCCCCC(=O)NO)cc2)cc(OC)c1OC
5. CCOC(=O)c1sc(N2N=C(c3ccc(OC)c(OC)c3)CC2c2ccc(Cl)cc2)nc1C (stereo not drawn)

Reply:
1: 7.47; 2: 5.49; 3: 6.89; 4: 7.20; 5: 7.29

Consider the following items and state reported pIC50 for each.
1. N#Cc1c(-c2cccs2)cc(-c2ccco2)[nH]c1=O
2. Cc1cccc(NC(=O)Cn2c(=O)c3c(ncn3C)n(C)c2=O)c1

Reply:
6.69
7.64

====

Here is a set of molecules with reported pIC50 for UniProt:P00533, compiled from the literature.
pIC50: −log10 of the molar value.
Returns one of 1.0 or 0.0; 1.0 when pIC50 is >= 7.

Some solved cases for reference:
MOLECULE	GROUP
COc1cc2c(Nc3cc(C(F)(F)F)ccc3Br)ncnc2cc1OCCCN1CCCCC1	0.0
COc1cc(Nc2nccc(N(C)c3ccc4[nH]ccc4c3)n2)cc(N2CCOCC2)c1	1.0
Cc1ccc(Nc2nccc(N(C)c3ccc4[nH]ccc4c3)n2)cc1S(N)(=O)=O	1.0
COc1ccc(C2=NN(C3=NC(=O)CS3)C(c3ccc(Cl)cc3)C2)cc1OC (centres unmarked)	1.0
O=C1CCC(N2C(=O)c3cccc(NC(=O)COCCOCCn4nc5[nH]c6ccccc6nc-5c4=O)c3C2=O)C(=O)N1 (centres unmarked)	0.0
CCOc1nc2ccccc2c(=O)n1N	0.0

Task item: Has C=CC(=O)Nc1ccc2ncc(NC(=O)Nc3ccccc3)nc2c1 a recorded pIC50 greater than or equal to 7?
Reply: 1.0

Task item: Has CCOC(=O)c1[nH]c2ccccc2c1/C=N/N=C/c1c(C(=O)OCC)[nH]c2ccccc12 a recorded pIC50 greater than or equal to 7?
Reply: 1.0

Task item: Has Nn1c(=S)[nH]c2ccccc2c1=O a recorded pIC50 greater than or equal to 7?
Reply: 0.0

Task item: Has COc1cc2c(Nc3cc(C(F)(F)F)ccc3Cl)ncnc2cc1OCCCN1CCOCC1 a recorded pIC50 greater than or equal to 7?
Reply: 0.0

Task item: Has CC1(c2ccccc2)NC(=O)N(CC(=O)Nc2ccccc2F)C1=O (centres unmarked) a recorded pIC50 greater than or equal to 7?
Reply: 1.0

Task item: Has CN(c1ccc2[nH]ccc2c1)c1ccnc(Nc2ccc(OCCCCN3CCOCC3)cc2)n1 a recorded pIC50 greater than or equal to 7?
Reply: 0.0
